Target: human IL-12 receptor (IL-12Rβ1 and IL-12Rβ2) on HEK-Blue IL-12 cells (human, UniProt P42701 24-662; Q99665 24-862)
Sequence (Q99665 24-862, chain 2 of 2, other chains not shown): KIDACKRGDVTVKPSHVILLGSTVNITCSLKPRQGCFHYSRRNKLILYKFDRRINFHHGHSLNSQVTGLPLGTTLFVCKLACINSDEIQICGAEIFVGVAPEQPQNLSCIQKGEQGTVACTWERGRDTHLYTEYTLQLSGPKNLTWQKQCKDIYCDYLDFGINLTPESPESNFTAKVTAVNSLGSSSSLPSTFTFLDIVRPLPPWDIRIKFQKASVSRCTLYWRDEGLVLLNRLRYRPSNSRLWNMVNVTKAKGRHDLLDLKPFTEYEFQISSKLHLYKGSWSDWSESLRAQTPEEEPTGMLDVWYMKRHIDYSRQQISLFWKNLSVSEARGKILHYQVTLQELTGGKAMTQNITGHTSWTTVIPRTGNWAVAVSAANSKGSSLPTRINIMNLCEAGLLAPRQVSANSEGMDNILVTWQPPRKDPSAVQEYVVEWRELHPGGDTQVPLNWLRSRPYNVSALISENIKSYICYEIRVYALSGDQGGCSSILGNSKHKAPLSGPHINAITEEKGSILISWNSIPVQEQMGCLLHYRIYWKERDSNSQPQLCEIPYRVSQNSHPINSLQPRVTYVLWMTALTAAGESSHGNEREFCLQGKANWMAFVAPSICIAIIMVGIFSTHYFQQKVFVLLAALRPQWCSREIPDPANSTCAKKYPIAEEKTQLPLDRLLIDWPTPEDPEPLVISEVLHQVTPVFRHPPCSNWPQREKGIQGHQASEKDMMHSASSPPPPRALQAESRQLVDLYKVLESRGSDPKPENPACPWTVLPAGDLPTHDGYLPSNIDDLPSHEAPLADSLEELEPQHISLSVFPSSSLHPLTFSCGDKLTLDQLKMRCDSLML
Test: cell-based or functional assay
Each item that follows carries a reported EC50.

Take a look at these entries with their results.
>>> test_result("DGL599 (bispecific antibody, human IgG1, V domains shown) V domain 1: EVQLVESGGGLVQAGGSLRLSCAASGSKFSFNAMGWYRQTPGKQRELVAIIINGDMINYADSVKGRFTISRDNAKNTMYLQMNSLKPEDTAVYYCKMTRYVYDYWGQGTQVTVEP V domain 2: QVQLVQSGAEVKKPGASVRVSCKASGYTFTSYYIHWVRQAPGQGLEWMGIINPSGGSTSYAQKFQGRVTMTRDTSTTTVYMELSSLRSEDTAVYYCAKSNWAYAFDIWGQGTMVTVSS")
"> 100 nM"
>>> test_result("DGL533 (bispecific antibody, V domains shown) V domain 1: EVQLVESGGGLVQPGGSLTLSCTASGFRFSDRSMGWYRQAPGKQRELVAAITVGGSTNYADSVKGRFTISRDNAKNTVYLQMNSLKPEDTALYYCNRRYPPDDYWGQGTQVTVEP V domain 2: QVQLVESGGGLVQAGGSLRLSCAASGRTFSSYAMGWFRQAPGKEREFVSAISWSGLSTYYVESVQGRFTISRDNAKNTVYLQMNSLKPEDTAVYYCAASRIYTNYVARSYEYDDWGQGTQVTVEP")
"> 100 nM"

# lookup: EC50 of DGL454 (bispecific antibody, V domains shown) V domain 1: QVQLQESGGALVQPGGSLRLSCVVSGFTSDYFAIGWFRQAPGKEREGVSCIGSSDGSTIYSDSVKGRFTISRDNAKNTVYLQMNSLKPEDTGVYYCALDRGRRTIIGYACYATMKYWGKGTPVTVEP V domain 2: QVQLVESGGGLVQPGGSLRLSCAASGFTFEPYDMSWFRQAPGKGPEWVSAIDKGGGAGATYYADSVKGRFTISRDNAKKTLYLQMKSLKPEDTAVYYCAITAGPYSDSTPRVAYRGEGTQVTVEP
> 100 nM
